Entries annotated with measured inhibition (Mean)
target: acetylcholinesterase (from human erythrocytes) (Homo sapiens); construct: acetylcholinesterase (from human erythrocytes, purchased from Sigma-Aldrich, Seoul, Korea); purchased Sigma-Aldrich, Seoul, Korea; host or cells: human erythrocytes (natural source); assay: biochemical; details: Conc: 3.92157 (unit not given); mean of three; Raw Data of IC50 sheet
Sequence (P22303 32-617 isoform P22303-2 limits assumed): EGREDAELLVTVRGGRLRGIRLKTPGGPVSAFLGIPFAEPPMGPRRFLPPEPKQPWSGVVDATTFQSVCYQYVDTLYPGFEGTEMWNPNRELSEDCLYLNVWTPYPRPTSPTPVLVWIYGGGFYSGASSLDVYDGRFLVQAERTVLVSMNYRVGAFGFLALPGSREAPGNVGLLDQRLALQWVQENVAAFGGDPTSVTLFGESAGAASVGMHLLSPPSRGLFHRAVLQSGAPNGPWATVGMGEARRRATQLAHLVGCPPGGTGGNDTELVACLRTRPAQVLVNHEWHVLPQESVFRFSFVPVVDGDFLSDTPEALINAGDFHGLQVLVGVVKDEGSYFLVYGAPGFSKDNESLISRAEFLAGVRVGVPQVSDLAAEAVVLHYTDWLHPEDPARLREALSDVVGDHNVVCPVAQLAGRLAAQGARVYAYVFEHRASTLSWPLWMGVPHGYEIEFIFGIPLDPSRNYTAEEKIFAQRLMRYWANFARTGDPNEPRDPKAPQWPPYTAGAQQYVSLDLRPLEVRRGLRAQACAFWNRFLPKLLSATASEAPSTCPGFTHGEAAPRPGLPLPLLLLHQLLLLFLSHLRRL

>  <Smiles code>
COc1ccc(CCN(CCCc2ccccc2)S(=O)(=O)c2ccc(C)cc2)cc1

>  <Measured target>
acetylcholinesterase (from human erythrocytes) (Homo sapiens)

>  <inhibition (Mean)>
74.3992

$$$$
>  <Smiles code>
COc1ccc(CCN(Cc2ccccc2C)S(=O)(=O)c2ccc(C)cc2)cc1

>  <Measured target>
acetylcholinesterase (from human erythrocytes) (Homo sapiens)

>  <inhibition (Mean)>
96.3251

$$$$
>  <Smiles code>
COc1ccc(CCN(Cc2cccc(C)c2)S(=O)(=O)c2ccc(C)cc2)cc1

>  <Measured target>
acetylcholinesterase (from human erythrocytes) (Homo sapiens)

>  <inhibition (Mean)>
97.9676

$$$$

Each recorded value in this set is attributed to paper PMC6025150.
